Experiment: Oral bioavailability in rat
Assay type: ADME, organism-based
Details: in vivo
Reported Property: bioavailability (%)
Give the value, in units of %, as a plain number.

Hello, please tell me recorded bioavailability for this one: C[C@@H]1CN(Cc2ncccn2)C[C@H]1c1nc2c(cnn2C2CCOCC2)c(=O)[nH]1 [EDELINONTRINE]
47

====

Assay: Ratio of drug concentration in rat brain to plasma
Type: ADME
Details: read-out: BPR
Reported Property: Kp
Answer with the value's number alone.

Hello, please tell me recorded Kp for this one: C[C@@H]1CN(Cc2ncccn2)C[C@H]1c1nc2c(cnn2C2CCOCC2)c(=O)[nH]1 [EDELINONTRINE]
0.71
